Every entry's value here was drawn from patent US10946023B2.

Biological target: IDH1 R132C (Homo sapiens (Human), UniProt O75874, R132C)
Sequence (O75874 whole entry R132C): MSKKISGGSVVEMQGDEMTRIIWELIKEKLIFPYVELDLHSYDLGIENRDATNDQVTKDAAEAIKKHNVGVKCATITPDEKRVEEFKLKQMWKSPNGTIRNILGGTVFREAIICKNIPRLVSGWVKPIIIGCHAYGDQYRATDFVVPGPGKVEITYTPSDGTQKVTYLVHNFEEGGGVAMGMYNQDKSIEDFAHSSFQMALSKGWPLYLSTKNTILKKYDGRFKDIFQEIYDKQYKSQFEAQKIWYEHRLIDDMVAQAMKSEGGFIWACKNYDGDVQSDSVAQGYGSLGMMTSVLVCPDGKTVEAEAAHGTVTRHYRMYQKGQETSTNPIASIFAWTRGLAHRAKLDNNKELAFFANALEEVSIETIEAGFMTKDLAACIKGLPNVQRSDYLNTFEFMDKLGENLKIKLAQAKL
Experiment: IDH1 R132C homodimer NADPH depletion assay (Table 4 column 6)
pIC50: −log10 of the molar value.
Measured parameter: pIC50

Query pIC50 on IDH1 R132C (Homo sapiens (Human), UniProt O75874, R132C) for Cc1cccc(-c2nc(NC3CCC(F)(F)CC3)nc(N[C@H](C)C3CC3)n2)n1 [Compound 50]
7.00 to 7.30

----------
Target: IDH1-R132 homodimer enzyme (R132H) (Homo sapiens (Human), UniProt O75874, R132H)
Sequence (O75874 whole entry R132H): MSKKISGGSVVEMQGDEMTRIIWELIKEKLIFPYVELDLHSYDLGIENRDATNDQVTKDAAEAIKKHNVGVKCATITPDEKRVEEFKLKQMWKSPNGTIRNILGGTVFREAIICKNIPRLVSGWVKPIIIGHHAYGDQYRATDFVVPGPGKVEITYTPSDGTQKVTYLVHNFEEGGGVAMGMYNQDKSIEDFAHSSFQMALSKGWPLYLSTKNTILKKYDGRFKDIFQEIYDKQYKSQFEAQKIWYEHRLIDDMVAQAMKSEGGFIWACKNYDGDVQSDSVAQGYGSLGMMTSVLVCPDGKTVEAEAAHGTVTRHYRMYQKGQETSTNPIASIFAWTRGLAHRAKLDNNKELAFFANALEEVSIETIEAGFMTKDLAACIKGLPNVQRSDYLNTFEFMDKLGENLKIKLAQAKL
Test: IDH1 R132H homodimer NADPH depletion assay (Table 4 column 3)
pIC50: −log10 of the molar value.
Measured parameter: pIC50

Quick one: pIC50 for `Cc1cccc(-c2nc(NC3CCC(F)(F)CC3)nc(N[C@H](C)C3CC3)n2)n1` ?
> 7.30
